test system: YANK2; construct: gene STK32B; details: concentration: 1 μM, replicates: in singlicate; n = 1;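 further: KINOMEscan kinase panel screen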
Below: a set of entries, each annotated with reported %Inh.
Enter your answer as a number in %; do not include the unit.

compound: CC(C)c1nc(-c2cccc(NS(=O)(=O)c3c(F)cccc3F)c2F)c(-c2ccnc(Nc3ccc(N4CCOCC4)nc3)n2)s1
readout.units: %
%Inh: 48

compound: COc1cc(Nc2ncc3c(C)nc(-c4cc5ccccc5[nH]4)n3n2)cc(OC)c1OC
readout.units: %
%Inh: 0

compound: Cc1occc1-c1ncc(OC[C@@H](N)Cc2c[nH]c3ccccc23)cc1-c1ccc2[nH]nc(C)c2c1.O=C(O)C(F)(F)F
readout.units: %
%Inh: 95

compound: Cl.c1ccc(-c2ccc3c(Nc4ccc5[nH]ccc5c4)ccnc3c2)nc1
readout.units: %
%Inh: 0

compound: O=C(Nc1cccc(-c2nn3ncccc3c2-c2ccnc(Nc3ccccc3)n2)c1)c1c(F)cccc1F
readout.units: %
%Inh: 38

compound: CC(C)(C)c1ccc2nccc(Nc3cccc(O)c3)c2c1
readout.units: %
%Inh: 0

Challenge: Answer with %Inh of `CNC(=O)c1ccccc1Nc1nc(Nc2ccc(N3CCOCC3)cc2)ncc1Cl.Cl` measured for YANK2.
Response given: 30

Challenge: Give reported %Inh for `O=C(Nc1n[nH]c2nc(-c3ccc(O)cc3)ccc12)C1CC1` (YANK2)
Response given: 0

Challenge: Look up and report measured %Inh (YANK2) for the following compound: O=C(NC1CCN(c2ccnc(Nc3ccc(F)cc3)n2)C1)c1cc2ccccc2s1 (stereo not shown)
Response given: 20

Challenge: Find the measured %Inh of COc1cc(Nc2nccc(N3CCC(NC(=O)c4cc5ccccc5s4)C3)n2)cc(OC)c1OC (stereo not shown) with YANK2 as test system.
Response given: 11

Challenge: Fill in %Inh for `O=C(O)C(F)(F)F.O=C(O)C(F)(F)F.O=c1[nH]ccc2nc(N[C@@H]3CCCNC3)nc(Nc3ccc(S(=O)(=O)N4CCOCC4)cc3)c12` tested with YANK2.
Response given: 89
